# key: entry, value: IC50
Test system: guinea-pig ileum, histamine
Experiment: Selectivity: inhibition of response to histamine, guinea-pig ileum
Format: biochemical
Settings: agonist histamine, read-out: concentration to inhibit standard response to stimulants by 50% (IC50)
From the text: A selection of classical in vitro pharmacological test preparations (rat uterus, rat fundus, guinea-pig ileum, guinea-pig taenia caeci) were set up according to well-established procedures (see "Pharmacological Experiments on Isolated Preparations" Staff of the Department of Pharmacology, University of Edinburgh, Livingstone, Edinburgh 1970). Various spasmogens were used to elicit contraction of these tissues though mechanisms other than the 5-HT "M" receptor. […]
State just the number; it will be interpreted in µM.

> print(dat)
                                   compound            system.under.test  assay.value
1  CN1C2CCC1CC(OC(=O)c1cc(Cl)cc(Cl)c1)C2 (centres unmarked) [C, tropyl 3,5-dichlorobenzoate]  guinea-pig ileum, histamine         3.68

Continue with the next compound.
response.value for COc1cc(OC)cc(C(=O)OC2CC3CCC(C2)N3C)c1 (centres unmarked) [A, tropyl 3,5-dimethoxybenzoate] (field: IC50) = 6.61

The reported measurements were obtained from patent US4563465A.
